Assay: Free fraction of drug in mouse plasma, rapid equilibrium dialysis
Format: in vitro ADME
// returns NO unless fraction unbound is strictly below 0.0003, in which case YES

[
  {
    "compound": "C[C@@H]1Cc2c([nH]c3ccccc23)[C@@H](c2ccc(OCCN3CC(CF)C3)cc2)N1CC(C)(C)F",
    "classification": "NO"
  },
  {
    "compound": "CCCN1CC(Oc2ccc([C@@H]3c4[nH]c5ccccc5c4C[C@@H](C)N3CC(C)(C)F)cc2)C1",
    "classification": "YES"
  },
  {
    "compound": "C[C@@H]1Cc2c([nH]c3ccccc23)[C@@H](c2c(F)cc(/C=C/C(=O)O)cc2F)N1CC(C)(C)F [AZD9496, reference compound]",
    "classification": "NO"
  },
  {
    "compound": "C[C@@H]1Cc2c([nH]c3ccccc23)[C@@H](c2c(F)cc(OCCN3CC(CF)C3)cc2F)N1CC(C)(C)F",
    "classification": "NO"
  },
  {
    "compound": "CCCN1CC(Oc2cc(F)c([C@@H]3c4[nH]c5ccccc5c4C[C@@H](C)N3CC(C)(C)F)c(F)c2)C1 [Goodacre Compound 107, reference compound]",
    "classification": "YES"
  }
]
